- Target: IRAK4 (Homo sapiens (Human), UniProt Q9NWZ3)
- Sequence (Q9NWZ3 whole entry): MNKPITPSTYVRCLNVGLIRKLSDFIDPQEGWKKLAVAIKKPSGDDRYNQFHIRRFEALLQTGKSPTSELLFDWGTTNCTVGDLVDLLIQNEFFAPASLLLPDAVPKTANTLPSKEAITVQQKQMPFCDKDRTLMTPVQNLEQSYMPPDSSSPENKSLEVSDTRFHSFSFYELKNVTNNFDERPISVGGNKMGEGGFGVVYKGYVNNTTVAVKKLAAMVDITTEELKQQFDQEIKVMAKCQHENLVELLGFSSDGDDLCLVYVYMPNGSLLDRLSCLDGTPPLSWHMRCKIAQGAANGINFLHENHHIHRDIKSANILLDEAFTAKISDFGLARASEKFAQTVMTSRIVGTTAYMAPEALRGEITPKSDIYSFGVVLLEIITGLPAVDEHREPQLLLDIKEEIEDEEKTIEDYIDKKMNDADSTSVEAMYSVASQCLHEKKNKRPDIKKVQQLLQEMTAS
Assay Readout: IC50

Before answering, review these 5 worked examples.
Compound	IC50
O=C1CCC(N2C(=O)c3ccc(OCCOCCOC[C@H]4CC[C@@H](n5c(NC(=O)c6cccc(C(F)(F)F)c6)nc6cc(CN7CCCCC7)ccc65)CC4)cc3C2=O)C(=O)N1 (stereo partly shown)	≥ 1000 nM
N#Cc1ccc2ncnc(N[C@H]3CC[C@@H](N4CCN(S(=O)(=O)CCOCCOCCOCCOCCOc5ccc6c(c5)C(=O)N(C5CCC(=O)NC5=O)C6=O)CC4)CC3)c2c1 (stereo partly shown)	≥ 1000 nM
O=C1CCC(N2C(=O)c3cccc(NCCOCCOCCN4CCN(Cc5ccc6c(c5)nc(NC(=O)c5cccc(C(F)(F)F)c5)n6[C@H]5CC[C@@H](CO)CC5)CC4)c3C2=O)C(=O)N1 (stereo partly shown)	< 30 nM
N#Cc1ccc2ncnc(N[C@H]3CC[C@H](N4CCN(CCOCCOc5ccc6c(c5)C(=O)N(C5CCC(=O)NC5=O)C6=O)CC4)CC3)c2c1 (stereo partly shown)	300 to 1000 nM
N#Cc1ccc2ncnc(N[C@H]3CC[C@H](N4CCN(CCOCCOCCOCCOc5ccc6c(c5)C(=O)N(C5CCC(=O)NC5=O)C6=O)CC4)CC3)c2c1 (stereo partly shown)	≥ 1000 nM

**Q:** Query: IC50; subject: O=C1CCC(N2C(=O)c3ccc(OCCOC[C@H]4CC[C@@H](n5c(NC(=O)c6cccc(C(F)(F)F)c6)nc6cc(F)ccc65)CC4)cc3C2=O)C(=O)N1 (stereo partly shown)
**A:** ≥ 1000 nM

**Q:** Try the compound N#Cc1ccc2ncnc(N[C@H]3CC[C@@H](N4CCN(S(=O)(=O)CCOCCOCCOc5ccc6c(c5)C(=O)N(C5CCC(=O)NC5=O)C6=O)CC4)CC3)c2c1 (stereo partly shown)
**A:** ≥ 1000 nM

**Q:** Same again, this time with Cc1ncsc1-c1ccc(CNC(=O)[C@@H]2C[C@@H](O)CN2C(=O)[C@@H](NC(=O)COCCN2CCN(Cc3ccc4c(c3)nc(NC(=O)c3cccc(C(F)(F)F)c3)n4C3CCC(CO)CC3)CC2)C(C)(C)C)cc1 (mixture of isomers)
**A:** 300 to 1000 nM

**Q:** Then this compound: CC1CCC(n2c(NC(=O)c3cccc(C(F)(F)F)c3)nc3cc(CN4CCN(CCOCCOc5ccc6c(c5)C(=O)N(C5CCC(=O)NC5=O)C6=O)CC4)ccc32)CC1 (stereo not shown)
**A:** 100 to 300 nM

**Q:** // query: Cc1ncsc1-c1ccc(CNC(=O)[C@@H]2C[C@@H](O)CN2C(=O)[C@@H](NC(=O)COCCOCCN2CCN(Cc3ccc4c(c3)nc(NC(=O)c3cccc(C(F)(F)F)c3)n4[C@H]3CC[C@@H](CO)CC3)CC2)C(C)(C)C)cc1 (racemic)
**A:** 30 to 100 nM

**Q:** And then Cc1ccc(-n2nc(N3CCN(CCOCCOCCOc4ccc5c(c4)C(=O)N(C4CCC(=O)NC4=O)C5=O)CC3)cc2NC(=O)c2cnn3cccnc23)nc1 (stereo not shown) , what is it?
**A:** 30 to 100 nM

**Q:** Then what about the compound O=C1CCC(N2C(=O)c3ccc(OCCOCCOCCOC[C@H]4CC[C@@H](n5c(NC(=O)c6cccc(C(F)(F)F)c6)nc6cc(F)ccc65)CC4)cc3C2=O)C(=O)N1 (stereo partly shown) ?
**A:** ≥ 1000 nM

**Q:** Now give it for COc1cc2nn(C3CCN(CCOCCOCCNc4cccc5c4C(=O)N(C4CCC(=O)NC4=O)C5=O)CC3)cc2cc1NC(=O)c1cccc(C(F)(F)F)n1 (stereo not shown) too.
**A:** < 30 nM

**Q:** // next record COc1cc2nn(C3CCN(CCOCCOc4ccc5c(c4)CN(C4CCC(=O)NC4=O)C5=O)CC3)cc2cc1NC(=O)c1cccc(C(F)(F)F)n1 (stereo not shown)
**A:** < 30 nM

**Q:** Same for COc1cc2nn(C3CCN(CCOCCOc4ccc5c(c4)C(=O)N(C4CCC(=O)NC4=O)C5=O)CC3)cc2cc1NC(=O)c1cccc(C(F)(F)F)n1 (stereo not shown)
**A:** < 30 nM

**Q:** Repeat with N#Cc1ccc2ncnc(N[C@H]3CC[C@H](N4CCN(S(=O)(=O)CCOCCOCCOc5ccc6c(c5)C(=O)N(C5CCC(=O)NC5=O)C6=O)CC4)CC3)c2c1 (stereo partly shown)
**A:** ≥ 1000 nM
